Listed next: entries and their corresponding growth inhibition.
Test: NCI Yeast Anticancer Drug Screen. Data for the rad50 strain (AID 155);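 also: 0% = growth of vehicle-only cultures of the same strain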
Conditions: S. cerevisiae rad50 strain growth inhibition, hits give high values; at 50.0 µM unless noted
Protocol: Growth inhibition of yeast strains with defined genetic alterations is measured as a screen for potential anti-cancer activity. Selected strains with alterations in DNA damage repair or cell cycle control were exposed to compounds and growth inhibition was measured relative to vehicle treated controls. The strain used in this assay is rad50
The panel holds about 79,000 compounds, 15% with a hit somewhere; the sample as a whole holds those more often.
endpoint label: growth inhibition (%)

CCC(C)(CC)c1ccc(C)cc1OC	-4.9
COC(=O)C1Cc2c([nH]c3ccccc23)C=N1 (stereo not given)	65.3
O=C(O)c1nc(-c2ccccc2)ncc1-c1nnnn1-c1ccccc1	-37.7
O=[N+]([O-])c1ccc2c(c1)S(=O)c1ccccc1-2 (stereo not given)	-18.1
COc1cc2cnc(-c3ccccc3)c(O)c2cc1OC	12.3
ClC1c2cccc3cccc(c23)C1Cl (stereo not given)	6.95
CCN(CC)C(=O)c1c(N2CCOCC2)cc(N(CC)CC)oc1=O	-10.2
N#C/C(=C\c1ccc2ccccc2c1)C(=O)c1ccccc1	13.7
Cc1cc(S(=O)(=O)Nc2nc(N)nc(N3N=CCC3C)n2)c(SCC(=O)O)cc1Cl (stereo not given)	-16
Cc1cc(Cl)ccc1NC(=O)CC/C(CC(=O)C(C)C)=N\NC(=O)C[n+]1ccccc1	-43.9
O=C(c1cccs1)N(C(=S)N1CCN(c2ccccc2)CC1)C1CCCCC1	-0.45
CCOC(=O)C(CC/C=C\c1ccccc1)N1CCC[C@H]1C(=O)OC (stereo not given in full)	-7.9
CCC(CC)C(O)C(C)C(C)O (stereo not given)	1.3
C[C@H]1/C(=C/C(=O)OCCN(C)C)CC[C@H]2[C@H]1C(=O)C[C@H]1C(C)(C)[C@@H](O)CC[C@]21C	1.2
O=C(NC(=S)Nc1ccccc1F)c1cccc([N+](=O)[O-])c1	26.1
